SYSTEM: Cholinesterase (Homo sapiens, UniProt P06276)
Sequence (P06276 whole entry): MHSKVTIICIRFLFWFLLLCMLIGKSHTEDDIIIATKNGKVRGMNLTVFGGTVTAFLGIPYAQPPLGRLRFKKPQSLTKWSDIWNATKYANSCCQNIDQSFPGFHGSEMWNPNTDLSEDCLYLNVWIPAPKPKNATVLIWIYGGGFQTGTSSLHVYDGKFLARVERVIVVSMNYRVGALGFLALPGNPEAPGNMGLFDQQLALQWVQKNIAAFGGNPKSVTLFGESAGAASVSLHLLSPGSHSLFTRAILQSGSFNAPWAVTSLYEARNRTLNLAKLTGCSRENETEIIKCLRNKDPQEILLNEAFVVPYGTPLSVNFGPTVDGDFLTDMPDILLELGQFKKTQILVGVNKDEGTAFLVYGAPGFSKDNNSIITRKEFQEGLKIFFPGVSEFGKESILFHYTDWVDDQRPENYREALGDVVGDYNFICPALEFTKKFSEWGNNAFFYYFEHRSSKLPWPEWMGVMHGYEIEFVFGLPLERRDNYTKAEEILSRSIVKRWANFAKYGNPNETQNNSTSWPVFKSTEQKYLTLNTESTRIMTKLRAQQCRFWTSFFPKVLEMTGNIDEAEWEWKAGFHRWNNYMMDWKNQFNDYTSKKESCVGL
PROCEDURE_SUMMARY: Inhibition of human plasma BuChE activity
The following molecules are listed with their measured pKi values.
Note: pKi values are expressed as the negative base-10 logarithm of concentration in M.

Answered cases to consult:
Cc1ccccc1C(=O)N1c2ccccc2Sc2ccccc21
5.51
CC(=O)Oc1ccc(C(=O)N2c3ccccc3Sc3ccccc32)cc1
4.64
O=C(Cc1ccc2ccccc2c1)N1c2ccccc2Sc2ccccc21
7.55
O=C(c1ccccc1)N1c2ccccc2Sc2ccccc21
5.24
CCC(C(=O)N1c2ccccc2Sc2ccccc21)c1ccccc1 (configuration not stated)
6.40
Cc1ccc(C(=O)N2c3ccccc3Sc3ccccc32)cc1
5.60

Query: Read off the recorded pKi for O=C(Cc1ccc(-c2ccccc2)cc1)N1c2ccccc2Sc2ccccc21
Result: 5.77

Query: Please look at this molecule and report its pKi: CC(C(=O)N1c2ccccc2Sc2ccccc21)c1ccccc1 (configuration not stated)
Result: 6.25

Query: # return recorded pKi for input O=C(Cc1ccccc1)N1c2ccccc2Sc2ccccc21
Result: 6.21

Query: Give the value of pKi reported for the following: CC(CC(=O)N1c2ccccc2Sc2ccccc21)c1ccccc1 (configuration not stated)
Result: 5.77

Query: Determine from records and report pKi for O=C(/C=C/c1ccccc1)N1c2ccccc2Sc2ccccc21
Result: 5.57

Query: Return the recorded pKi value; entry: O=C(CCc1ccccc1)N1c2ccccc2Sc2ccccc21
Result: 5.21

----------
SYSTEM: Cholinesterase (Homo sapiens, UniProt P06276)
PROCEDURE_SUMMARY: Inhibition of human plasma BuChE activity
log10 Ki overview
Values reflect log10 of reported Ki (µM).

Recorded results for 10 compounds are shown here.
O=C(Cc1cccc2ccccc12)N1c2ccccc2Sc2ccccc21
-1.05
O=C(CCCc1ccccc1)N1c2ccccc2Sc2ccccc21
-0.66
O=C(c1ccc([N+](=O)[O-])cc1)N1c2ccccc2Sc2ccccc21
-0.09
Cc1cccc(C(=O)N2c3ccccc3Sc3ccccc32)c1
0.28
O=C(c1cccc2ccccc12)N1c2ccccc2Sc2ccccc21
-1.06
COc1ccc(C(=O)N2c3ccccc3Sc3ccccc32)cc1
0.18
O=C(c1c2ccccc2cc2ccccc12)N1c2ccccc2Sc2ccccc21
-2.46
O=C(c1ccc2ccccc2c1)N1c2ccccc2Sc2ccccc21
-0.33
O=C(C(=O)N1c2ccccc2Sc2ccccc21)N1c2ccccc2Sc2ccccc21
-0.66
O=C(c1ccc(Br)cc1)N1c2ccccc2Sc2ccccc21
0.11

Query: Report log10 Ki, nothing else, for this compound: O=C(c1cccc(Br)c1)N1c2ccccc2Sc2ccccc21
Result: -0.22

----------
SYSTEM: Acetylcholinesterase (Homo sapiens)
PROCEDURE_SUMMARY: Inhibition of recombinant human AChE activity
Active and inactive are the calls of the source. No cut-off for these calls is given here.
MEASURED_QUANTITY: Activity

In the examples that follow, each entry is paired with its recorded Activity.
O=C(Cc1ccc2ccccc2c1)N1c2ccccc2Sc2ccccc21
inactive
O=C(CCCc1ccccc1)N1c2ccccc2Sc2ccccc21
inactive
O=C(/C=C/c1ccccc1)N1c2ccccc2Sc2ccccc21
inactive
CC(C(=O)N1c2ccccc2Sc2ccccc21)c1ccccc1 (stereo unspecified)
inactive
O=C(C(=O)N1c2ccccc2Sc2ccccc21)N1c2ccccc2Sc2ccccc21
inactive

Query: Quote Activity reported for Cc1cccc(C(=O)N2c3ccccc3Sc3ccccc32)c1 please.
Result: inactive

Query: Return Activity (reported value) for this compound: O=C(c1cccc(Br)c1)N1c2ccccc2Sc2ccccc21
Result: inactive

Query: Consider the compound O=C(CCc1ccccc1)N1c2ccccc2Sc2ccccc21 . State its measured Activity.
Result: inactive

Query: # return recorded Activity for entry O=C(Cc1ccccc1)N1c2ccccc2Sc2ccccc21
Result: inactive

Query: Tell me measured Activity for O=C(c1ccc(-c2ccccc2)cc1)N1c2ccccc2Sc2ccccc21 please.
Result: inactive

Query: Output measured Activity for this item: CC(C)(C)c1ccc(C(=O)N2c3ccccc3Sc3ccccc32)cc1
Result: inactive
